Values from patent US11014917B2

- study.target: human SGLT2 (Homo sapiens, UniProt P31639)
- Construct: expressed in transfected cells
- Sequence (P31639 1-672): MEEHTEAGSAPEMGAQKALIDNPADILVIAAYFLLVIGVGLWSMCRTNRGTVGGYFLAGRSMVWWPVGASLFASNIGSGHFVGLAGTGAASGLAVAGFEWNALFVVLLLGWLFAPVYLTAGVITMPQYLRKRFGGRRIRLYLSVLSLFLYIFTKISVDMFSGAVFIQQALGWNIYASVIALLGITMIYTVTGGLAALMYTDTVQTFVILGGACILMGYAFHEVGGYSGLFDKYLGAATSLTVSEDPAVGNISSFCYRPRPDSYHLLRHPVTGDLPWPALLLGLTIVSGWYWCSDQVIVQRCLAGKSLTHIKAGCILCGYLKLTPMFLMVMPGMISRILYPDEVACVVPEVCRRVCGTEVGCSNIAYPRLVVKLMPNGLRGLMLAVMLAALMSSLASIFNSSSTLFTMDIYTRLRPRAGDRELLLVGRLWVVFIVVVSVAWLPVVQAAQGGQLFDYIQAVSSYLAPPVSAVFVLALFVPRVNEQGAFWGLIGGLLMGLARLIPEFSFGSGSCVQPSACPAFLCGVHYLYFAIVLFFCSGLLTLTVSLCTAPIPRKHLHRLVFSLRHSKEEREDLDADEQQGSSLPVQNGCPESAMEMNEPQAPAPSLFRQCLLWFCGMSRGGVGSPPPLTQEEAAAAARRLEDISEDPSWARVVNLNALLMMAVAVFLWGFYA
- method.notes: SGLT2 assay: Na-dependent 14C-AMG uptake in CHO-K1 cells stably expressing human SGLT2
- Format: cell-based
- condition.info: average if tested more than once
List of log10 of IC50 values.
measurement.name: log10 of IC50 (log10 of the value in nM)

INSERT INTO measurements (substance_smiles, measurement_name, numeric_value) VALUES
  ('CCc1ccc(Cc2cc([C@@H]3O[C@H](CO)[C@@H](F)[C@H](O)[C@H]3O)c(OC)c3c2OCC3)cc1', 'log10 of IC50', 0.90),
  ('N#CN1CCc2sc(Cc3cc([C@@H]4O[C@H](CO)[C@@H](F)[C@H](O)[C@H]4O)c(O)cc3Cl)cc2C1', 'log10 of IC50', 0.70),
  ('OC[C@H]1O[C@@H](c2cc3c(c(Cc4ccc5c(c4)NCCC5)c2)OCC3)[C@H](O)[C@@H](O)[C@@H]1F', 'log10 of IC50', 2.00),
  ('CCc1ccc(Cc2cc([C@@H]3O[C@H](CO)[C@@H](F)[C@H](O)[C@H]3O)c(O)c3c2OCC3)cc1', 'log10 of IC50', 0.60),
  ('Cc1cc(O)c([C@@H]2O[C@H](CO)[C@@H](F)[C@H](O)[C@H]2O)cc1Cc1cc2c(s1)CCN(C#N)C2', 'log10 of IC50', 0.48),
  ('Cc1cc(O)c([C@@H]2O[C@H](CO)[C@@H](F)[C@H](O)[C@H]2O)cc1Cc1cc2ccccc2s1', 'log10 of IC50', 0.60),
  ('[2H]C1([2H])Oc2ccc(Cc3cc([C@@H]4O[C@H](CO)[C@@H](F)[C@H](O)[C@H]4O)c(OC)c4c3OCC4)cc2OC1([2H])[2H]', 'log10 of IC50', 0.85),
  ('[2H]C([2H])([2H])Oc1cc(CC)c(Cc2ccc3c(c2)OCCO3)cc1[C@@H]1O[C@H](CO)[C@@H](F)[C@H](O)[C@H]1O', 'log10 of IC50', 1.04),
  ('COC[C@H]1O[C@@H](c2cc(Cc3cc4ccccc4s3)c(OC)cc2O)[C@H](O)[C@@H](O)[C@@H]1F', 'log10 of IC50', 2.03),
  ('[2H]C1([2H])Oc2ccc(Cc3cc([C@@H]4O[C@H](CO)[C@@H](F)[C@H](O)[C@H]4O)c4c(c3CC)CCO4)cc2OC1([2H])[2H]', 'log10 of IC50', 1.18),
  ('Cc1c([C@@H]2O[C@H](CO)[C@@H](F)[C@H](O)[C@H]2O)cc(Cc2ccc3c(c2)SCCO3)c2c1CCO2', 'log10 of IC50', 1.08),
  ('O=C(N1CCCC1)N1CCc2sc(Cc3cc([C@@H]4O[C@H](CO)[C@@H](F)[C@H](O)[C@H]4O)cc4c3OCC4)cc2C1', 'log10 of IC50', 2.21),
  ('COC(=O)N1CCc2sc(Cc3cc([C@@H]4O[C@H](CO)[C@@H](F)[C@H](O)[C@H]4O)c(O)cc3Cl)cc2C1', 'log10 of IC50', 1.68);
